Experiment: melting temperature; fluorescence melt of hairpins on a sequencing array, two-state fit, raised by 9.35 °C to match UV melts
Settings: sodium 0.088 M
# Tm per record follows
The response must be a number in °C with no trailing unit.

Here is how some sequences turned out for Tm.
| ORDERED RESIDUES | VALUE UNIT | OBSERVED RESULT |
| --- | --- | --- |
| GATAGTGAAAACTATC ((((((....)))))) | °C | 48.4 |
| GGACGCGAAAGCGGTTCC ((((((....)))..))) | °C | 45.7 |
| GATCCCCGAAAGGGATC (((.(((....)))))) | °C | 56.2 |
| GCCTTGGGAAACCAGGGC (((.(((....))).))) | °C | 52.7 |
| GCGTGCGAAAGCAGTCGC ((((((....)))..))) | °C | 53 |

Form field: reported Tm of GTTTTGCGAAAGCAAAC (((.(((....))))))
46.1

# get_value(readout='Tm', item= GGTGAGGGAAACTTCGCC ((.((.(....).)).)) )
35.7

Using the record for GATCCAAGACTGGATC ((((((....)))))) , report its Tm.
47.4

Reported Tm for GGCTTGAAAAAGCC (((((....))))) : what is it?
59.6

Reported Tm for GTCAGAGCGAAAGCTGAC (((..(((....)))))) : what is it?
49.3

What value of Tm has been reported for the following sequence? GTGGCACGAAAGTGCAC (((.(((....))))))
52.1

Entry GCGTCTATACGC ((((....)))) has what Tm?
54.6

---

Assay: melting temperature; fluorescence melt of hairpins on a sequencing array, two-state fit, raised by 9.35 °C to match UV melts
Details: sodium 0.088 M
REPORTED METRIC: Tm (°C)
Give just the number in °C; leave the unit off.

Recorded Tm, per entry:
| ORDERED RESIDUES | Tm / °C |
| --- | --- |
| GACGGCCGAAAGGCGGTC (((.(((....))).))) | 67.9 |
| GTAAGCACGAAAGTGTAC (((..(((....)))))) | 27.9 |
| GTGCTTCGAAAGAACCAC (((.(((....))).))) | 34.8 |
| GATCGGAATGCCGATC ((((((....)))))) | 54.9 |
| GGAACTCGAAAGAGATCC (((.(((....))).))) | 49.5 |

Now look at this entry.
Requested read-out: Tm. Entry: GCAACGCGAAAGCGCTGC (((.(((....))).)))
57.8

---

Assay: melting temperature; fluorescence melt of hairpins on a sequencing array, two-state fit, raised by 9.35 °C to match UV melts
Conditions: sodium 0.088 M
Think of 50 °C as a floor: if Tm stands on it or above, it is yes (1); beneath it, no (0).

The examples below pair each entry with its known result.
| ORDERED RESIDUES | ASSIGNED CATEGORY |
| --- | --- |
| GATAAGGGAAACCCTATC ((((.((....)).)))) | no (0) |
| GATCCCCCGCGGGATC ((((((....)))))) | yes (1) |

Dear colleague, could you confirm whether GCAGCCCGAAAGGGTGC (((.(((....)))))) has Tm at or above 50 °C?
yes (1)

# bool: Tm of GTTCCCGGAAACAGGAAC (((((.(....).))))) >= 50 °C
no (0)

Quick check, Tm >= 50 °C? GCCCACGAAAGTGTAGGC ((((((....)))..)))
yes (1)

API: above_or_equal(metric=Tm, cutoff=50 °C) for item GCCCGGCGAAAGCAGCGC ((.(.((....)).).))
no (0)
